System: DU-145 prostate
Assay: NCI-60 one-dose screen, 48 h (100 = growth as untreated, 0 = no growth, -100 = all killed)
Conditions: 10 µM unless noted
Compounds without any hit were thinned out: in the full panel of roughly 83,000, 20% have a hit.
Lab note: compare growth with 90%, writing Y if less and N if equal or more.

Bench note: check whether C/C=C(/C)n1cnc2c(Nc3ccccn3)nc(Cl)nc21 shows growth below 90% N

N#CC1CCc2c(c(-c3ccc4nc(N)sc4c3)nc3ccc4[nH]ncc4c23)C1 (stereo not given) , same question. Y

Also check CCN1C(=O)N(CC)C2C1NN=c1s/c(=C3\C(=O)N(CCC(C)C)c4ccccc43)c(=O)n12 (stereo not given) Y

What do you have for COc1cccc(C(=O)NNc2nc(Cl)nc(Cl)n2)c1 ? N
